- Assay System: rabbit lung angiotensin converting enzyme (Oryctolagus cuniculus)
- Construct: rabbit lung angiotensin converting enzyme (Sigma Chemical Company, St. Louis, Mo.); purchased Sigma Chemical Company, St. Louis, Mo; host or cells: rabbit lung (tissue-derived enzyme)
- Sequence (P12822 34-1310): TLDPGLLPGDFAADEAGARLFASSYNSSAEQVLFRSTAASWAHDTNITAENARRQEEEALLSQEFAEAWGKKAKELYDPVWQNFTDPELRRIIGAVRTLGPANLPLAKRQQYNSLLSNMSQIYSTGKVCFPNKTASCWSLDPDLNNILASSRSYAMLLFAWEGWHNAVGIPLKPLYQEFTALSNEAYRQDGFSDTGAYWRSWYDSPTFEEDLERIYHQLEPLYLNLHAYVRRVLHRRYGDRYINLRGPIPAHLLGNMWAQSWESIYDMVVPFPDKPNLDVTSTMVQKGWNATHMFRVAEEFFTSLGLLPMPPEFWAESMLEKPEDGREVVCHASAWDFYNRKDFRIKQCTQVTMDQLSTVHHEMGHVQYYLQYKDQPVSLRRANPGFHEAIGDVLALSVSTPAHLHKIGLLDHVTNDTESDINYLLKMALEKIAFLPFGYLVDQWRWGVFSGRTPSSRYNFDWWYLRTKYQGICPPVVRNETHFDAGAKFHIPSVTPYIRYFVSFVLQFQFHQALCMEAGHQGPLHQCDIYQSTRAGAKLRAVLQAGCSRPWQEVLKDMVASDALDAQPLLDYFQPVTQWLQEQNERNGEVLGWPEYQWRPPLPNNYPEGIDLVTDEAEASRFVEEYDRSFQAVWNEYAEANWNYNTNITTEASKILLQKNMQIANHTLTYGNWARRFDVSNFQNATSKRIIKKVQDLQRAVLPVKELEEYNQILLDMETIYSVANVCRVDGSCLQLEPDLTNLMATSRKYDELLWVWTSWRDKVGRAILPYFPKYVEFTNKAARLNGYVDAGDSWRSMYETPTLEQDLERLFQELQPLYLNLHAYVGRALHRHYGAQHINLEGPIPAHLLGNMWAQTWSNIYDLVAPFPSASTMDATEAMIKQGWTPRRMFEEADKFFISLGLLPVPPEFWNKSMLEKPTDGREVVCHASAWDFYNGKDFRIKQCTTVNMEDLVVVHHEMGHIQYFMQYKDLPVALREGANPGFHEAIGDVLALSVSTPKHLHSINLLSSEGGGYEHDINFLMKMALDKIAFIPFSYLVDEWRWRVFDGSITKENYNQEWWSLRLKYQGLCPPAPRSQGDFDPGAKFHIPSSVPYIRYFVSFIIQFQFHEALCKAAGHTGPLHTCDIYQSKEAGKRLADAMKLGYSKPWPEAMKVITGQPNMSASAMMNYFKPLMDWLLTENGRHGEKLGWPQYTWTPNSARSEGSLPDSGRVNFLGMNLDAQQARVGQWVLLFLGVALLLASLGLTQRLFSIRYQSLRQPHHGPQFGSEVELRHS
- Procedure Text: ACE inhibitory activity, FAPGG substrate
- Type: biochemical
- Study Conditions: synthetic peptides, 37° C., 30 minutes, read-out: ACE Inhibition (IC50)
Where no end group is shown, it is not given here.
Recorded IC50 values for a group of substances are listed next.
Numeric answer only, unit µM assumed.

INSERT INTO measurements (substance, assay_system, units_of_measure, reported) VALUES
  ('IPRPRPRP [IP-8, IPRPRPRP]', 'rabbit lung angiotensin converting enzyme (Oryctolagus cuniculus)', 'µM', 7.2);

Shifting focus to the substance that follows.
Record request: IC50 value, item LKPDNR [LR-6, LKPDNR]
121
